Each recorded value in this set is attributed to patent US7335814B2.

Recorded Specific activity (UGT71C1) values for a group of molecules are listed next.
- Assay Target: UGT71C1 (Arabidopsis thaliana, UniProt O82381)
- Construct: GST (N); made in house; host or cells: E. coli
- Sequence (O82381 whole entry): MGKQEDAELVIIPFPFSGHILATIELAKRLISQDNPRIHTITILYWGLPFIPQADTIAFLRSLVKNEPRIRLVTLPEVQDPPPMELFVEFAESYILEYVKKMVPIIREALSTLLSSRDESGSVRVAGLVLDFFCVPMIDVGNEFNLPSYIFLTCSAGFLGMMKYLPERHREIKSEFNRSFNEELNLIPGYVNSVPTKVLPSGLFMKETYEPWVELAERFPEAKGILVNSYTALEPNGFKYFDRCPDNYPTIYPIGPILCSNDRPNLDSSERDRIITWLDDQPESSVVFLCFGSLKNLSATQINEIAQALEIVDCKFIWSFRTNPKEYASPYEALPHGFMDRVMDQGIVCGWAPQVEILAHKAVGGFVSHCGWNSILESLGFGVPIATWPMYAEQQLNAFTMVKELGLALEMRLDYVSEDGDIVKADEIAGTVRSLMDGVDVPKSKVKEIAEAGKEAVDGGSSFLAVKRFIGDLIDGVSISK
- Protocol: UGT71C1 glucosyltransferase specific activity towards phenolic compounds (reverse-phase HPLC)
- Type: biochemical
- Particulars: 1 mM phenolic compound, 5 mM UDP-glucose, 50 mM TRIS-HCl pH 7.0, 30° C., 30 min; mean of three replicates ± standard deviation

Molecule	Specific activity (UGT71C1), nkat/mg
O=C(O)C=Cc1ccc(O)c(O)c1 [Caffeic acid, 3,4-dihydroxycinnamic acid]	2.9
O=c1c(O)c(-c2ccc(O)c(O)c2)oc2cc(O)cc(O)c12	1.4
O=c1ccc2cc(O)c(O)cc2o1	34.8
O=c1cc(-c2ccc(O)c(O)c2)oc2cc(O)cc(O)c12	0.7
O=C(O)c1ccc(O)c(O)c1 [3,4-dihydroxybenzoic acid]	0
O=C1C[C@@H](c2ccc(O)c(O)c2)Oc2cc(O)cc(O)c21	0
O=C(O)/C=C/c1ccc(O)cc1	0
O=C(O)/C=C/c1cccc(O)c1	1.2
COc1cc(/C=C/C(=O)O)cc(OC)c1O	0
O=C(O)/C=C/c1ccccc1O	1.5
O=C(O)c1ccc(O)cc1 [4-hydroxybenzoic acid]	0
COc1cc2ccc(=O)oc2cc1O	29.4
COc1cc(/C=C/C(=O)O)ccc1O	0
